Data origin: paper PMC4456024

target: cardiac troponin C (cNTnC) (Homo sapiens, UniProt P63316, C35S/C84S); assay: 2D 1H, […]-HSQC NMR titration, […] fit; type: binding
Experimental Readout: Kd (µM)
The figure you give is taken to be in µM; do not add the unit.

Which measured Kd value corresponds to Cc1ccc(C)c(N2CCN(c3ccncc3N)CC2)c1 ?
721
